Consider the following molecules and their measured inhibition readings.
Assay: H1N1 influenza NS1A inhibitors, functional cell based assay (AID 504329)
Settings: percent inhibition, at 12.5 µM, stronger effect = higher value
Among all 340,000 compounds or so, about 1,000 (0.29%) were called active. These entries were drawn from the full list. Potency and affinity values are given separately.
Give a bare numeral; the unit % is implied.

Recorded results for 5 molecules are shown here.
| molecule | reading-unit | measurement |
| --- | --- | --- |
| CCOC(=O)N1CCN(C(=O)CN(C)S(=O)(=O)c2ccc3c(c2)c(=O)n(C)c(=O)n3C)CC1 | % | 1.25 |
| Cc1ccc(NCc2nc3ccccc3n2C)cc1 | % | 3.76 |
| CC(C)=CC(=O)Nc1nnc(-c2ccccc2C)s1 | % | -8.76 |
| O=C(O)Cc1cn(Cc2ccc(F)cc2)c2ccccc12 | % | 5.18 |
| Cc1cc(C(=O)OCC(=O)Nc2ccccc2C)c(C)o1 | % | -4.72 |

Identify measured inhibition corresponding to O=C(NC1CCCCC1)C1CC(=O)N(Cc2ccccc2)C1 (configuration not stated)
-1.57

Identify measured inhibition corresponding to `Cc1[nH][nH]c(=O)c1C(c1c(C)[nH][nH]c1=O)c1cn(Cc2ccc(Cl)c(Cl)c2)c2ccccc12`
17.4

Identify measured inhibition corresponding to `CC(=O)Nc1cccc(NC(=O)CSc2nnc3ccc(-c4cccnc4)nn23)c1`
2.74

Identify measured inhibition corresponding to `CCOc1ccc2c(c1)C(=NNC(=O)c1ccccn1)c1cc(OCC)ccc1-2`
7.92

Identify measured inhibition corresponding to Cc1ccc(/C=C/C(=O)NC(C)c2ccccc2)cc1 (configuration not stated)
2.36

Identify measured inhibition corresponding to `O=C(CNC(=O)c1ccco1)Nc1ccc2c(c1)OCCO2`
5.25

Identify measured inhibition corresponding to `Cc1cccc(NC(=S)N(CCCN2CCOCC2)Cc2cn(C)c3ccccc23)c1`
4.41

Identify measured inhibition corresponding to `COc1ccc2c(c1)C(=NNC(=O)c1ccccn1)c1cc(OC)ccc1-2`
-2.18

Identify measured inhibition corresponding to `Cc1cc(C)cc(N2C(=O)CCN(Cc3ccccc3)C2=O)c1`
0.48

Identify measured inhibition corresponding to `CCOCCc1nnc(NC(=O)CN2C(=O)c3ccccc3C2=O)s1`
-7.03

Identify measured inhibition corresponding to CC1(c2ccc3c(c2)OCCO3)NC(=O)N(CC(=O)Nc2ccccc2SCC#N)C1=O (configuration not stated)
-12.2

Identify measured inhibition corresponding to COc1ccc(OC2C(=O)N(CCc3ccc(OC)c(OC)c3)C2c2ccc3c(c2)OCO3)cc1 (configuration not stated)
22.8

Identify measured inhibition corresponding to CCN1CCN(C(c2cc(OC)ccc2OC)c2nnnn2Cc2ccccc2)CC1 (configuration not stated)
-5.45

Identify measured inhibition corresponding to `Cc1[nH]c2ccccc2c1CCNS(=O)(=O)c1ccc(S(N)(=O)=O)cc1`
23.3

Identify measured inhibition corresponding to `Cn1c(CNc2ccccc2)nc2ccccc21`
-15.8

Identify measured inhibition corresponding to `O=C(Oc1ccc(/C=N/NC(=O)c2ccccc2O)cc1)c1ccccc1`
1.64

Identify measured inhibition corresponding to `O=c1ccc(/C=C/c2ccccc2)nn1Cc1ccc(F)cc1`
1.19
